// data source = PubChem BioAssay AID2590

- target of assay: Lysosomal acid glucosylceramidase (Homo sapiens)
- assay procedure: qHTS Assay for Inhibitors and Activators of N370S glucocerebrosidase as a Potential Chaperone Treatment of Gaucher Disease: Primary Screen Confirmation
- study conditions: N370S glucocerebrosidase enzyme activity, fluorogenic substrate; series mostly up to 54 µM
Results filed as inconclusive are left out. Active and inactive are the calls of the source. Calls come from the whole dose curve; as a rule, active = well fitted curve in the direction sought with a large enough effect; inconclusive = small, poorly fitted or top-dose-only effect, or another doubt; inactive = no such curve, though single readings can be large or run the other way.
Log the outcome using a class from active, inactive

Request: For "S=C(NCCCc1cnc[nH]1)NCCCN(Cc1ccc(Cl)cc1)c1ccc(-c2ccccc2)cn1" , what call appears in the results of this test?
Result: active

Request: How was "O=S(=O)(c1ccccc1C(F)(F)F)N1CCN(c2nc(-c3ccccc3)nc3ccccc23)CC1" classified in this test?
Result: active

Request: Could you kindly confirm the outcome this assay logged for "Cc1cccn2c(=O)c3cc(C(=O)NCCc4ccccc4)sc3nc12" ?
Result: inactive

Request: Check the results log: what was the call for "Cc1ccc(S(=O)(=O)N2CCN(c3nc(-c4cccnc4)nc4ccccc34)CC2)cc1" ?
Result: active

Request: // param item: "O=C(Nc1cnn(Cc2ccc(F)cc2)c1)c1cnn2c(C(F)F)cc(-c3ccccc3)nc12" ; yields the recorded call
Result: inactive

Request: How was "COc1ccc(-c2cc3ccc(OCC(C)=O)cc3oc2=O)cc1" classified in this test?
Result: inactive

Request: Outcome logged for "S=C(NCCCc1cnc[nH]1)NCCCN(Cc1ccc(Cl)c(Cl)c1)c1ccccn1" in this assay:
Result: active

Request: Dear all, I need the recorded test outcome for "Oc1cccc(Nc2nc(-c3ccccc3Cl)nc3ccccc23)c1" , thank you.
Result: active

Request: Could you check what this test reported for CCC1CN(S(=O)(=O)c2ccc3c(c2)NC(=O)CC(=O)N3)c2cc(Cl)ccc2O1 (stereo not given) ?
Result: active

Request: Lab log entry: "COc1ccc(NC(=O)Nc2cccc(C)n2)c(OC)c1" — outcome as called in the assay?
Result: inactive

Request: Identify the outcome logged in this assay for the compound shown: "Clc1ccc(CN(CCCNc2ncnc(NCCCc3cnc[nH]3)n2)c2ccc(Br)cn2)cc1Cl"
Result: active

Request: Status in this test for "N#Cc1ccc(S(=O)(=O)N2CCN(c3nc(-c4cccs4)nc4ccccc34)CC2)cc1" ?
Result: active

Request: Identify the outcome logged in this assay for the compound shown: "O=C(Nc1ccccc1)Nc1ccccc1"
Result: inactive

Request: Could you please tell me the result logged for "Cc1ccc(S(=O)(=O)N2CCN(c3nc(-c4cccs4)nc4c3ncn4COC(=O)C(C)(C)C)CC2)cc1" in this assay?
Result: inactive

Request: Assay result, entry "O=S(=O)(c1ccc(Cl)cc1)N1CCN(c2nc(-c3ccc(F)cc3)nc3cc(Cl)ccc23)CC1" — outcome?
Result: inactive

Request: # lookup: test call for "Cc1cc(C)cc(S(=O)(=O)N2CCN(c3nc(-c4cccs4)nc4ccccc34)CC2)c1"
Result: active

Request: Please share the test call associated with "O=S(=O)(c1cccc2ccccc12)N1CCN(c2nc(-c3cccs3)nc3ccccc23)CC1" .
Result: active

Request: GET /call?item= "CC(=O)c1ccccc1S(=O)(=O)N1CCN(c2nc(-c3cccs3)nc3ccccc23)CC1" returns the recorded outcome of this test.
Result: active

Request: Hi, do you know how "Cc1cc(C)cc(N(CC(=O)NC2CCCCCC2)S(=O)(=O)c2c(C)[nH]c(=O)[nH]c2=O)c1" came out in this test?
Result: active

Request: Which outcome was assigned to "NS(=O)(=O)c1ccc(S(=O)(=O)N2CCN(c3nc(-c4cccs4)nc4ccccc34)CC2)cc1" in this test?
Result: active

----------
- target of assay: Lysosomal acid glucosylceramidase (Homo sapiens)
- assay procedure: qHTS Assay for Inhibitors and Activators of N370S glucocerebrosidase as a Potential Chaperone Treatment of Gaucher Disease: Primary Screen Confirmation
- study conditions: N370S glucocerebrosidase enzyme activity, fluorogenic substrate; series mostly up to 54 µM
- Source text: NIH Chemical Genomics Center [NCGC] NIH Molecular Libraries Probe Production Centers Network [MLPCN] Assay Submitter (PI): Wei Zheng Glucocerebrosidase (GC) catalyzes the hydrolysis of beta-glucocerebroside to glucose and ceramide in lysosomes. Mutations in the glucocerebrosidase gene result in Gaucher disease, an autosomal recessive lysosomal storage disorder. […] (6) Detect the assay plate in a ViewLux plate reader (PerkinElmer) with Ex=365 nm and Em=440nm. […]
Inconclusive results are not listed. The source made the active and inactive calls. Calls follow the shape of the dose curve; as a rule, active = well fitted curve in the direction sought with a large enough effect; inconclusive = small, poorly fitted or top-dose-only effect, or another doubt; inactive = no such curve, though single readings can be large or run the other way.
Your reply should match one of these outcome classes. True = active, False = inactive

Request: What did the test return for "O=S(=O)(c1ccc2c(Cl)cccc2c1)N1CCN(c2nc(-c3cccs3)nc3ccccc23)CC1" ?
Result: True

Request: Recorded call for "Cc1ccc(S(=O)(=O)N(C)CCN(C)c2nc(-c3cccs3)nc3ccccc23)cc1" ?
Result: True

Request: Recorded test outcome, item "S=C(NCCCc1cnc[nH]1)NCCCN(CCc1ccccc1)c1ccc(Br)cn1"
Result: True

Request: In this assay, the call recorded for "CN1CCOc2cc(S(=O)(=O)N3CCN(c4nc(-c5cccs5)nc5ccccc45)CC3)ccc21" was what?
Result: True

Request: Hey, what did the test say about "Cc1cc(C)n2ncc(C(=O)Nc3cccc(O)c3)c2n1" ?
Result: False

Request: What is the recorded call for this compound in the test? "Cc1ccccc1NC(=O)Nc1ccccn1"
Result: False

Request: Write down the call the test reported for this compound. Item: "COC(=O)c1nc(N2CCN(S(=O)(=O)c3ccc(C)cc3)CC2)c2ccccc2n1"
Result: True

Request: Identify the outcome logged in this assay for the compound shown: "O=S(=O)(c1ccc(F)cc1)N1CCN(c2nc(-c3ccccc3)nc3ccccc23)CC1"
Result: True

Request: Entry "CCN(CC)c1ccc(Br)cn1" : call = ?
Result: True

Request: Could you kindly confirm the outcome this assay logged for "O=S(=O)(c1ccc2c(c1)OCO2)N1CCN(c2nc(-c3cccs3)nc3ccccc23)CC1" ?
Result: True

----------
- target of assay: Lysosomal acid glucosylceramidase (Homo sapiens)
- assay procedure: qHTS Assay for Inhibitors and Activators of N370S glucocerebrosidase as a Potential Chaperone Treatment of Gaucher Disease: Primary Screen Confirmation
- study conditions: N370S glucocerebrosidase enzyme activity, fluorogenic substrate; series mostly up to 54 µM
Results filed as inconclusive are left out. The source made the active and inactive calls. Calls come from the whole dose curve; as a rule, active = well fitted curve in the direction sought with a large enough effect; inconclusive = small, poorly fitted or top-dose-only effect, or another doubt; inactive = no such curve, though single readings can be large or run the other way.
Returns: one label drawn from yes for active, no for inactive

Request: Would you mind telling me which call this test gave "O=S(=O)(c1cccc(C(F)(F)F)c1)N1CCN(c2nc(-c3cccs3)nc3cc(Cl)ccc23)CC1" ?
Result: no

Request: Tell me the assay call for "CCc1ccc(NC(=O)CN(c2ccc(OC)cc2)S(=O)(=O)c2c(C)[nH]c(=O)[nH]c2=O)cc1" please.
Result: yes

Request: Which outcome did this test record for the compound "C#CCOCCOCCOCCNc1nc(N2CCN(C(=O)CCCCCCCCCCNC(=O)[C@H](CCCCN)n3cc(C)nn3)CC2)nc(N2CCN(C(=O)CCCCCCCCCCNC(=O)[C@H](CCCN=C(N)N)n3cc(C[C@@H](C)CC)nn3)CC2)n1" ?
Result: yes

Request: What did the test return for "Cc1cc(Cl)nc(NC(=O)Nc2cccc(Cl)c2)n1" ?
Result: no

Request: What did this assay record as the result for "O=S(=O)(c1ccc(F)cc1F)N1CCN(c2nc(-c3cccs3)nc3ccccc23)CC1" ?
Result: yes

Request: Hi, sorry to bother you, what did the test record for "CN1CCN(CCCNC(=O)c2ccc(/C=C3\Oc4ccccc4N(Cc4ccccc4F)C3=O)cc2)CC1" ?
Result: no

Request: Dear all, I need the recorded test outcome for "CCOC(=O)c1ccc(Nc2cc(C)nc(-c3ccccc3)n2)cc1" , thank you.
Result: yes

Request: What did the test return for "CCOc1ccc(N(CC(=O)Nc2ccc(C)cc2)S(=O)(=O)c2c(C)[nH]c(=O)[nH]c2=O)cc1" ?
Result: yes

Request: I would be grateful if you could indicate the recorded call for "O=C(NCCCc1cnc[nH]1)NCCCN(Cc1ccc(Cl)cc1)c1ccc(Br)cn1" .
Result: yes

Request: Hi team, can someone confirm the assay call for c1ccc2c(NCC3CCCO3)nc(N3CCOCC3)nc2c1 (stereo not given) ?
Result: no

Request: Fill in: this test's call for "Cc1ccccc1S(=O)(=O)N1CCN(c2nc(-c3cccs3)nc3ccccc23)CC1" is ___
Result: yes

Request: Any idea what this test logged for "Cc1nc2nc(-c3ccccc3)cn2nc1C" ?
Result: no

Request: Hello, I am checking results. What call was entered for "O=S(=O)(c1ccccc1)N1CCN(c2nc(-c3ccc(F)cc3)nc3cc(Cl)ccc23)CC1" ?
Result: no

Request: Please state the recorded outcome for this compound: "CCOc1ccc(N(CC(=O)NC2CCCCCC2)S(=O)(=O)c2c(C)[nH]c(=O)[nH]c2=O)cc1"
Result: yes

Request: Please indicate how the test categorized "O=S(=O)(c1cccc(Br)c1)N1CCN(c2nc(-c3cccs3)nc3ccccc23)CC1" .
Result: yes

Request: Test call, this compound: "Cc1ccc(S(=O)(=O)N2CCN(c3nc(C#N)nc4ccccc34)CC2)cc1"
Result: no

Request: Which result was noted for this compound in the test: "CCOc1ccc(S(=O)(=O)N2CCN(c3nc(-c4ccccc4)nc4ccccc34)CC2)cc1"
Result: yes

Request: # fetch the recorded call for CC(Nc1nc(-c2ccccc2F)nc2ccccc12)c1ccccc1 (stereo not given) here
Result: yes

Request: What classification did "COc1ccccc1S(=O)(=O)N1CCN(c2nc(-c3cccs3)nc3ccccc23)CC1" end up with in this test?
Result: yes

Request: Name the outcome recorded for "CCCCNC(=O)c1cc2c(=O)n3cccc(C)c3nc2s1" in the assay.
Result: no

Request: How did this test come out for Cc1cc(C)cc(N(CC(=O)NC2CCC(C)CC2)S(=O)(=O)c2c(C)[nH]c(=O)[nH]c2=O)c1 (stereo not given) ?
Result: yes

Request: Tell me the recorded outcome of this test for "S=C(NCCCCN(Cc1ccc(Cl)cc1)c1ccc(Br)cn1)NCCCc1cnc[nH]1" .
Result: yes

Request: For Cc1cc(NC(=O)CCS(=O)(=O)c2ccc3c(c2)NC(=O)C(C)S3)ccc1Br (stereo not given) , which call appears in the assay record?
Result: yes

Request: Which outcome was assigned to "CC(C)(C)c1cccc(S(=O)(=O)N2CCN(c3nc(-c4cccs4)nc4ccccc34)CC2)c1" in this test?
Result: yes

Request: What call does the record list for "COc1cccc(CN(C)c2nc(-c3cccs3)nc3ccccc23)c1" ?
Result: yes

Request: # outcome recorded in this test, key = "O=S(=O)(c1cccs1)N1CCN(c2nc(-c3cccs3)nc3ccccc23)CC1"
Result: yes

Request: Any idea what this test logged for "Cc1ccc(S(=O)(=O)N2CCN(c3nc(-c4cccs4)nc4cccnc34)CC2)cc1" ?
Result: yes

Request: Which result was noted for this compound in the test: "c1ccc(CNc2nc(-c3ccccc3)nc3ccccc23)cc1"
Result: yes

Request: Short answer needed: outcome of this test for "CC(C)S(=O)(=O)N1CCN(c2nc(-c3cccs3)nc3ccccc23)CC1" ?
Result: yes

Request: # lookup: test call for "N=c1c2c(-c3ccccc3)c(-c3ccccc3)n(Cc3ccco3)c2ncn1CCCn1ccnc1"
Result: yes

Request: Call for entry "CCOc1ccccc1NC(=O)CN(c1ccc(C)cc1)S(=O)(=O)c1c(C)noc1C" :
Result: no

Request: Status in this test for "N=c1c(S(=O)(=O)c2ccccc2)cc2c(=O)n3ccccc3nc2n1CCCN1CCOCC1" ?
Result: no

Request: Hi, sorry to bother you, what did the test record for "CC(=O)NCCCN(Cc1ccc(Cl)c(Cl)c1)c1ccc(Br)cn1" ?
Result: no

Request: Hi team, can someone confirm the assay call for "Cc1ccc(S(=O)(=O)N2CCN(c3nc(-c4cscn4)nc4ccccc34)CC2)cc1" ?
Result: yes

Request: Recorded test call requested for "Cc1ccc(Nc2cc(C)nc(-c3ccccc3)n2)cc1"
Result: yes

Request: Can you look up the reported call for "COc1ccc(Nc2nc(-c3cccs3)nc3ccccc23)cc1" for me?
Result: yes

Request: Per the records of this test, what outcome belongs to "CN(CCCc1cnc[nH]1)C(=S)NCCCN(Cc1ccc(Cl)cc1)c1ccc(Br)cn1" ?
Result: yes

Request: # lookup: test call for "NCCCNc1ccc(Br)cn1"
Result: no

Request: Could you check what this test reported for "CC(=O)Nc1ccc(NC(=O)COc2ccccc2C(=O)Nc2cccc(Cl)c2Cl)cc1" ?
Result: no

Request: What is the recorded call for this compound in the test? "O=S(=O)(c1cccnc1)N1CCN(c2nc(-c3cccs3)nc3ccccc23)CC1"
Result: yes
